Non-standard residues stand in square brackets, D forms with d. Residues, ends and D or L forms follow the SMILES beside them. *: point of attachment. Hyp = O=C(O)[C@@H]1C[C@@H](O)CN1; Octanoyl = CCCCCCCC(=O)*; Piperidide = C1CCN(*)CC1; Bn = c1ccc(C*)cc1
measured attribute: MIC (µg/mL)
# number only, unit µg/mL dropped from output

Q: Find the measured MIC: item CCCCCCCC(=O)N[C@@H](Cc1ccc(OCc2ccccc2)cc1)C(=O)N[C@@H](CC(C)C)C(=O)N1CCC[C@H]1C(=O)N[C@H](CCCNC(=N)N)C(=O)OC [Structure 26] (Octanoyl-Y(Bn)LP[dR]-OMe) , target or system E. coli (ATCC 25922).
Result: 32

Q: Find the measured MIC: item CCCCCCCC(=O)N[C@@H](Cc1ccc(OCc2ccccc2)cc1)C(=O)N[C@@H](CC(C)C)C(=O)N1C[C@H](O)C[C@H]1C(=O)N[C@H](CCCNC(=N)N)C(=O)N1CCCCC1 [Structure 32] (Octanoyl-Y(Bn)L[Hyp][dR]-Piperidide) , target or system E. coli (ATCC 25922).
Result: 64

Q: Find the measured MIC: item CCCCCCCC(=O)N[C@@H](Cc1ccc(OCc2ccccc2)cc1)C(=O)N[C@@H](CC(C)C)C(=O)N1CCC[C@H]1C(=O)N1CCCC(CNC(=N)N)C1 (some centres unmarked) , target or system E. coli (ATCC 25922).
Result: 16

Q: Find the measured MIC: item CCCCCCCC(=O)N[C@H](Cc1ccc(OCc2ccccc2)cc1)C(=O)N[C@@H](CC(C)C)C(=O)N1CCC[C@H]1C(=O)N[C@H](CCCNC(=N)N)C(=O)OC [Structure 25] (Octanoyl-[dY](Bn)LP[dR]-OMe) , target or system E. coli (ATCC 25922).
Result: 128

Q: Find the measured MIC: item `CCCCCCCC(=O)N[C@@H](Cc1ccc(OCc2ccccc2)cc1)C(=O)N[C@@H](CC(C)C)C(=O)N1CCC[C@H]1C(=O)N1CC[C@H](NC(=N)N)C1` , target or system E. coli (ATCC 25922).
Result: 32

====

- target or system: DnaK (Escherichia coli, UniProt P0A6Y8)
- Sequence (P0A6Y8 2-638): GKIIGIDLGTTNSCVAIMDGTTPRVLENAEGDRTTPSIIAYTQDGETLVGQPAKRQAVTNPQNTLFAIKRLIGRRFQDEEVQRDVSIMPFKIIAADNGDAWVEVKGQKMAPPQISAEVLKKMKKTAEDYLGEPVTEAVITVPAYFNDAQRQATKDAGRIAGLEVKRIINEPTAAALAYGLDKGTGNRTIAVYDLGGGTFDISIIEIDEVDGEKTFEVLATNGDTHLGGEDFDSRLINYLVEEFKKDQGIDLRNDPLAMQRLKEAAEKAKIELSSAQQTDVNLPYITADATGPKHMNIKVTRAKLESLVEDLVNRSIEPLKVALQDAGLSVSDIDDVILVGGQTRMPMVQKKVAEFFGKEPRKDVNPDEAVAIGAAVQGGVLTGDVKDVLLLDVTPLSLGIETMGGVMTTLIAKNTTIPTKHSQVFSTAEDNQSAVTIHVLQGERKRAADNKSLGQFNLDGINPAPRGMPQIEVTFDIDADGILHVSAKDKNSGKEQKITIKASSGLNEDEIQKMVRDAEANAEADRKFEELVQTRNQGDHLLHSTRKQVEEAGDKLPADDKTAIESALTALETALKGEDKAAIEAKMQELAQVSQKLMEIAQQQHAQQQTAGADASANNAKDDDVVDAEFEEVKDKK
- protocol summary: DnaK Inhibition Assay (DnaK induced refolding of denatured firefly luciferase)
- Format: biochemical, E. coli
- experimental parameters: DnaK 200 nM, DnaJ 100 nM, GrpE 400 nM, read-out: DnaK IC50(μg/ml) (converted)
Counter-ions that a name gives are not always drawn. Non-standard residues stand in square brackets, D forms with d. Residues, ends and D or L forms follow the SMILES beside them. *: point of attachment. Phe(4-F) = N[C@@H](Cc1ccc(F)cc1)C(=O)O; 2Nal = N[C@@H](Cc1ccc2ccccc2c1)C(=O)O; NH(CH2)3Ph = c1ccc(CCCN*)cc1; Octanoyl = CCCCCCCC(=O)*; Orn = NCCC[C@H](N)C(=O)O; Piperidide = C1CCN(*)CC1; Boc = CC(C)(C)OC(=O)*; Bn = c1ccc(C*)cc1
measured attribute: IC50 (µM)
# number only, unit µM dropped from output

Q: Please report the recorded IC50 for CC(=O)N[C@@H](Cc1ccc(OCc2ccccc2)cc1)C(=O)N[C@@H](CC(C)C)C(=O)N1CCC[C@H]1C(=O)NCCCCN [Structure 5, Ac-Tyr(Bzl)-Leu-Pro-NH(CH2)4NH2.TFA] .
Result: 106

Q: Please report the recorded IC50 for CC(=O)N[C@@H](Cc1ccc(OCc2ccccc2)cc1)C(=O)N[C@@H](CC(C)C)C(=O)N1CCC[C@H]1C(=O)N[C@@H](CCCNC(=N)N)C(=O)N1CCCCC1 [Structure 14] (Ac-Y(Bn)LPR-Piperidide) .
Result: 37.5

Q: Please report the recorded IC50 for CC(=O)N[C@@H](Cc1ccc(F)cc1)C(=O)N[C@@H](CC(C)C)C(=O)N1CCC[C@H]1C(=O)O [Structure 11] (Ac-[Phe(4-F)]-Leu-Pro-OH) .
Result: 363

Q: Please report the recorded IC50 for CCC(C)[C@H](NC(=O)[C@H](Cc1ccc(O)cc1)NC(C)=O)C(=O)N[C@@H](CO)C(=O)OC (stereo partly drawn) .
Result: 530

Q: Please report the recorded IC50 for CCCCCCCC(=O)N[C@@H](Cc1ccc(OCc2ccccc2)cc1)C(=O)N[C@@H](CC(C)C)C(=O)N1CCC[C@H]1C(=O)N[C@H](CCCNC(=N)N)C(=O)N1CCCCC1 [Structure 28] (Octanoyl-Y(Bn)LP[dR]-Piperidide) .
Result: 14.4

Q: Please report the recorded IC50 for CC(=O)N[C@@H](Cc1ccc(O)cc1)C(=O)N[C@@H](CC(C)C)C(=O)N1CCC[C@H]1C(=O)N[C@@H](CCCNC(=O)OC(C)(C)C)C(=O)N1CCC[C@H]1C(=O)NCCCc1ccccc1 [Structure 18, Ac-Tyr-Leu-Pro-Orn(Boc)-Pro-NH(CH2)3Ph] (Ac-YLP[Orn](Boc)P-{NH(CH2)3Ph}) .
Result: 63.8

Q: Please report the recorded IC50 for CCCCCCCC(=O)N[C@@H](Cc1ccc(OCc2ccccc2)cc1)C(=O)N[C@@H](CC(C)C)C(=O)N1CCC[C@H]1C(=O)N[C@H](CCCNC(=N)N)C(=O)OC [Structure 26] (Octanoyl-Y(Bn)LP[dR]-OMe) .
Result: 34.7

Q: Please report the recorded IC50 for COC(=O)[C@@H]1CCCN1C(=O)[C@H](CC(C)C)NC(=O)[C@H](Cc1ccc2ccccc2c1)NC(C)=O [Structure 8, Ac-2-Nal-Leu-Pro-OMe] (Ac-[2Nal]-Leu-Pro-OMe) .
Result: 127

Q: Please report the recorded IC50 for CC(=O)N[C@@H](Cc1ccc(OCc2ccccc2)cc1)C(=O)N[C@@H](CC(C)C)C(=O)N1CCC[C@H]1C(=O)O [Structure 3, Ac-Tyr(Bzl)-Leu-Pro-OH] (Ac-Tyr(Bn)-Leu-Pro-OH) .
Result: 399

====

- target or system: DnaK (Escherichia coli)
- protocol summary: DnaK Inhibition Assay (DnaK induced refolding of denatured firefly luciferase)
- Type: biochemical, E. coli
- experimental parameters: DnaK 200 nM, DnaJ 100 nM, GrpE 400 nM, read-out: DnaK IC50
Non-standard residues stand in square brackets, D forms with d. Residues, ends and D or L forms follow the SMILES beside them. *: point of attachment. NH(CH2)3Ph = c1ccc(CCCN*)cc1; Orn = NCCC[C@H](N)C(=O)O; Piperidide = C1CCN(*)CC1; Boc = CC(C)(C)OC(=O)*; Bn = c1ccc(C*)cc1
measured attribute: IC50 (µM)
# number only, unit µM dropped from output

Q: Please report the recorded IC50 for CC(=O)N[C@@H](Cc1ccc(OCc2ccccc2)cc1)C(=O)N[C@@H](CC(C)C)C(=O)N1CCC[C@H]1C(=O)N[C@@H](CCCNC(=O)OC(C)(C)C)C(=O)N1CCC[C@H]1C(=O)NCCCc1ccccc1 [Structure 17] (Ac-Y(Bn)LP[Orn](Boc)P-{NH(CH2)3Ph}) .
Result: 21

Q: Please report the recorded IC50 for CC(=O)N[C@@H](Cc1ccc(OCc2ccccc2)cc1)C(=O)N[C@@H](CC(C)C)C(=O)N1CCC[C@H]1C(=O)N[C@@H](CCCNC(=N)N)C(=O)N1CCCCC1 [Structure 14] (Ac-Y(Bn)LPR-Piperidide) .
Result: 25

====

- target or system: DnaK (Escherichia coli, UniProt P0A6Y8)
- protocol summary: DnaK Inhibition Assay (DnaK induced refolding of denatured firefly luciferase)
- Assay type: biochemical, E. coli
- experimental parameters: DnaK 200 nM, DnaJ 100 nM, GrpE 400 nM, read-out: DnaK IC50
measured attribute: IC50

Q: Please report the recorded IC50 for 3-(Octylamido)-nicotinoyl-Tyr(Bzl)-Leu-Pro-Arg-OMe trifluoroacetate [Structure 31] .
Result: 10 µM

====

- target or system: DnaK (Escherichia coli)
- protocol summary: DnaK Inhibition Assay (DnaK induced refolding of denatured firefly luciferase)
- Format: biochemical, E. coli
- experimental parameters: DnaK 200 nM, DnaJ 100 nM, GrpE 400 nM, read-out: DnaK IC50
Structures can show the parent of a compound that is named as a salt. Non-standard residues stand in square brackets, D forms with d. Residues, ends and D or L forms follow the SMILES beside them. *: point of attachment. Phe(4-NH2) = Nc1ccc(C[C@H](N)C(=O)O)cc1; 2Nal = N[C@@H](Cc1ccc2ccccc2c1)C(=O)O; Hyp = O=C(O)[C@@H]1C[C@@H](O)CN1; NH(CH2)3Ph = c1ccc(CCCN*)cc1; Octanoyl = CCCCCCCC(=O)*; Orn = NCCC[C@H](N)C(=O)O; Piperidide = C1CCN(*)CC1; Cbz = O=C(OCc1ccccc1)*; Bn = c1ccc(C*)cc1
measured attribute: IC50 (µM)
# number only, unit µM dropped from output

Q: Please report the recorded IC50 for CCC(C)[C@H](NC(=O)[C@H](Cc1ccc(O)cc1)NC(C)=O)C(=O)N[C@@H](CO)C(=O)OC (stereo partly drawn) [Structure 23, Ac-Tyr-Ile-Ser-OMe] .
Result: 101

Q: Please report the recorded IC50 for CCCCCCCC(=O)N[C@@H](Cc1ccc(OCc2ccccc2)cc1)C(=O)N[C@@H](CC(C)C)C(=O)N1CCC[C@H]1C(=O)NCCNC(=N)N [Structure 30] .
Result: 19

Q: Please report the recorded IC50 for CC(=O)N[C@@H](Cc1ccc(OCc2ccccc2)cc1)C(=O)N[C@@H](CC(C)C)C(=O)N1CCC[C@H]1C(=O)N[C@@H](CCCN)C(=O)N1CCC[C@H]1C(=O)NCCCc1ccccc1 [Structure 20, Ac-Tyr(Bzl)-Leu-Pro-Orn-Pro-NH(CH2)3Ph] (Ac-Y(Bn)LP[Orn]P-{NH(CH2)3Ph}) .
Result: 16

Q: Please report the recorded IC50 for CC(=O)N[C@@H](Cc1ccc(O)cc1)C(=O)N[C@@H](CC(C)C)C(=O)N1CCC[C@H]1C(=O)N[C@@H](CCCNC(=N)N)C(=O)N1CCCCC1 [Structure 4, Ac-Tyr-Leu-Pro-Arg-N(CH2)5.TFA] (Ac-YLPR-Piperidide) .
Result: 3

Q: Please report the recorded IC50 for COC(=O)[C@@H]1CCCN1C(=O)[C@H](CC(C)C)NC(=O)[C@H](Cc1ccc2ccccc2c1)NC(C)=O [Structure 8, Ac-2-Nal-Leu-Pro-OMe] (Ac-[2Nal]-Leu-Pro-OMe) .
Result: 30

Q: Please report the recorded IC50 for CC(=O)N[C@@H](Cc1ccc2ccccc2c1)C(=O)N[C@@H](CC(C)C)C(=O)N1CCC[C@H]1C(=O)O [Structure 9] (Ac-[2Nal]-Leu-Pro-OH) .
Result: 62

Q: Please report the recorded IC50 for COC(=O)[C@@H]1CCCN1C(=O)[C@H](CC(C)C)NC(=O)[C@H](Cc1ccc(NC(=O)OCc2ccccc2)cc1)NC(C)=O [Structure 6, Ac-4-(NHCbz)Phe-Leu-Pro-OMe] (Ac-[Phe(4-NH2)](Cbz)-Leu-Pro-OMe) .
Result: 147

Q: Please report the recorded IC50 for COC(=O)[C@@H]1CCCN1C(=O)[C@H](CC(C)C)NC(=O)[C@H](Cc1ccc(OCc2ccccc2)cc1)NC(C)=O [Structure 2, Ac-Tyr(Bzl)-Leu-Pro-OMe] (Ac-Tyr(Bn)-Leu-Pro-OMe) .
Result: 63

Q: Please report the recorded IC50 for CCCCCCCC(=O)N[C@H](Cc1ccc(OCc2ccccc2)cc1)C(=O)N[C@@H](CC(C)C)C(=O)N1CCC[C@H]1C(=O)N[C@H](CCCNC(=N)N)C(=O)OC [Structure 25] (Octanoyl-[dY](Bn)LP[dR]-OMe) .
Result: 20

Q: Please report the recorded IC50 for CCCCCCCC(=O)N[C@@H](Cc1ccc(OCc2ccccc2)cc1)C(=O)N[C@@H](CC(C)C)C(=O)N1CCC[C@H]1C(=O)N1CC[C@H](NC(=N)N)C1 [Structure 29] .
Result: 10

Q: Please report the recorded IC50 for CCCCCCCC(=O)N[C@@H](Cc1ccc(OCc2ccccc2)cc1)C(=O)N[C@@H](CC(C)C)C(=O)N1C[C@H](O)C[C@H]1C(=O)N[C@H](CCCNC(=N)N)C(=O)N1CCCCC1 [Structure 32] (Octanoyl-Y(Bn)L[Hyp][dR]-Piperidide) .
Result: 12
